# System: Bcl-2
# procedure-details: Western blotting, semiquantitative analysis of Bcl-2 protein bands
# Assay type: cell-based
# stated-conditions: 18 h; control = 1; tumor cells
Quick reference for concentration of the protein bands (semiquantitative, normalized), Bcl-2 among some compounds
quantity-measured: concentration of the protein bands (semiquantitative, normalized), Bcl-2

{"columns": ["compound", "number"],
 "data": [
  ["CC(C)Cc1ccc(Sc2ccc3c4c(cccc24)C2=NC(=O)C(C#N)=C23)cc1", 0.36],
  ["CCC(C)c1ccc(Sc2ccc3c4c(cccc24)C2=NC(=O)C(C#N)=C23)cc1 (centres unmarked)", 0.49],
  ["CC(C)c1ccc(Oc2ccc3c4c(cccc24)C2=NC(=O)C(NCCCc4ccccc4)=C23)cc1", 0.45],
  ["CC(C)c1ccc(Sc2ccc3cccc4c3c2C2=NC(=O)C(C#N)=C24)cc1", 0.60],
  ["CCCCNC1=C2C(=NC1=O)c1cccc3c(Sc4ccc(Br)cc4)ccc2c13", 0.51],
  ["CC(C)Cc1ccc(Oc2ccc3c4c(cccc24)C2=NC(=O)C(C#N)=C23)cc1", 0.39],
  ["CCCCNC1=C2C(=NC1=O)c1cccc3cccc2c13", 0.58],
  ["CC(C)c1ccc(Oc2ccc3c4c(cccc24)C2=NC(=O)C(C#N)=C23)cc1", 0.58]
]}

* * *

Assay read-out IC50; system under study: His-tagged Mcl-1 protein (Homo sapiens).
Sequence (Q07820 whole entry): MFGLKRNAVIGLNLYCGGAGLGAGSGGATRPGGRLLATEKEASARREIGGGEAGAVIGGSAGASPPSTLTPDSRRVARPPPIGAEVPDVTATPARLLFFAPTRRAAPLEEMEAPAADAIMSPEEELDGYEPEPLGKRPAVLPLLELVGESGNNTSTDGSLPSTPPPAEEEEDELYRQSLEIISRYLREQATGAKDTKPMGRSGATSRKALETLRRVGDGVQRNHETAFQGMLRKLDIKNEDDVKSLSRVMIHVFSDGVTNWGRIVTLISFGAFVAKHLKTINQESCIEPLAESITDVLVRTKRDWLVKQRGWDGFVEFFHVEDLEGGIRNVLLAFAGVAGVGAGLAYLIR

{"columns": ["given-smiles", "IC50"],
 "data": [
  ["CCCCNC1=C2C(=NC1=O)c1cccc3c(Oc4ccc(C(C)C)cc4)ccc2c13", "46 nM"],
  ["O=C1N=C2C(=C1NCCCc1ccccc1)c1cccc3cccc2c13", "14 nM"],
  ["CC(C)c1ccc(Oc2ccc3c4c(cccc24)C2=NC(=O)C(NCCCc4ccccc4)=C23)cc1", "15 nM"],
  ["O=C1N=C2C(=C1NCCCc1ccccc1)c1ccc(N3CCSCC3)c3cccc2c13", "5 nM"],
  ["CCCCCCNC1=C2C(=NC1=O)c1cccc3cccc2c13", "25 nM"],
  ["CCCCNC1=C2C(=NC1=O)c1cccc3c(N4CCSCC4)ccc2c13", "16 nM"]
]}

* * *

# System: Mcl-1
# procedure-details: Western blotting, semiquantitative analysis of Mcl-1 protein bands
# Format: cell-based
# stated-conditions: 6 h; control = 1; tumor cells
# Experimental: The interest protein was detected by the corresponding antibody. The expression of the interest protein in the cells was detected by horseradish peroxidase-labeled secondary antibodies in combination with ECL coloration method. […] The concentration of the protein bands in the Western images were carried out semiquantitative analysis and normalization treatment with KODAK Gel Logic 1500 imaging system software.
Answer F if concentration of the protein bands (semiquantitative, normalized), Mcl-1 is under 0.3, and T if it is 0.3 or more.

{"columns": ["compound", "qualitative-label"],
 "data": [
  ["CCCCCCNC1=C2C(=NC1=O)c1cccc3cccc2c13 [Compound 2]", "T"],
  ["CC(C)c1ccc(Oc2ccc3c4c(cccc24)C2=NC(=O)C(NCCCc4ccccc4)=C23)cc1 [Compound 12]", "F"],
  ["O=C1N=C2C(=C1NCCCc1ccccc1)c1ccc(Sc3ccc(Br)cc3)c3cccc2c13 [Compound 8]", "F"],
  ["CCCCNC1=C2C(=NC1=O)c1cccc3cccc2c13 [Compound 1]", "T"],
  ["CCC(C)c1ccc(Sc2ccc3c4c(cccc24)C2=NC(=O)C(C#N)=C23)cc1 (centres unmarked) [Compound 21]", "F"],
  ["CCCCNC1=C2C(=NC1=O)c1cccc3c(Oc4ccc(C(C)C)cc4)ccc2c13 [Compound 11]", "T"],
  ["CC(C)c1ccc(Sc2ccc3cccc4c3c2C2=NC(=O)C(C#N)=C24)cc1 [Compound 22]", "T"],
  ["CC(C)Cc1ccc(Sc2ccc3c4c(cccc24)C2=NC(=O)C(C#N)=C23)cc1 [Compound 18]", "T"]
]}

* * *

Quick reference for melting point among some compounds

{"columns": ["compound", "melting point"],
 "data": [
  ["CCCCNC1=C2C(=NC1=O)c1cccc3c(Sc4ccc(Br)cc4)ccc2c13 [Compound 7]", "245 to 246 °C"],
  ["CC(C)c1ccc(Oc2ccc3c4c(cccc24)C2=NC(=O)C(NCCCc4ccccc4)=C23)cc1 [Compound 12]", "275 to 276 °C"],
  ["CCCCNC1=C2C(=NC1=O)c1cccc3c(C(=O)c4ccccc4)ccc2c13 [Compound 5]", "262 to 263 °C"],
  ["O=C1N=C2C(=C1NCCCc1ccccc1)c1ccc(N3CCSCC3)c3cccc2c13 [Compound 10]", "265 to 266 °C"],
  ["CCCCCCNC1=C2C(=NC1=O)c1cccc3cccc2c13 [Compound 2]", "234 to 235 °C"],
  ["CCC(C)c1ccc(Oc2ccc3c4c(cccc24)C2=NC(=O)C(C#N)=C23)cc1 (centres unmarked) [Compound 13]", "278 to 279 °C"],
  ["O=C1N=C2C(=C1NCCCc1ccccc1)c1ccc(Sc3ccc(Br)cc3)c3cccc2c13 [Compound 8]", "272 to 273 °C"],
  ["CCCCNC1=C2C(=NC1=O)c1cccc3c(N4CCSCC4)ccc2c13 [Compound 9]", "239 to 240 °C"]
]}

* * *

# experimental-system: interaction between Bcl-2 and Bax (Homo sapiens)
# Construct: expressed in transfected cells; host or cells: Hela cells
# Sequence (P10415 whole entry): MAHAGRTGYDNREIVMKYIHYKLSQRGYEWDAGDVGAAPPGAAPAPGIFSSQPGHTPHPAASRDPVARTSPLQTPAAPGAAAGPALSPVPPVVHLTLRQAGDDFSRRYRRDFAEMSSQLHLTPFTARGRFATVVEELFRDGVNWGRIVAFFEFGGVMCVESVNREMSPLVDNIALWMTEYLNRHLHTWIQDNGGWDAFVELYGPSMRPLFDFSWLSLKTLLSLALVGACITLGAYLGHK
# procedure-details: Intracellular FRET, Bcl-2-CFP/Bax-YFP in Hela cells
# Assay type: cell-based
# stated-conditions: at the concentration given
Quick reference for Time (time period after which the interaction between Bcl-2 and Bax was interfered) among some molecules
quantity-measured: Time (time period after which the interaction between Bcl-2 and Bax was interfered) (h)

{"columns": ["given-smiles", "number"],
 "data": [
  ["CCCCNC1=C2C(=NC1=O)c1cccc3c(N4CCSCC4)ccc2c13", 2],
  ["CCCCN(C)C1=C2C(=NC1=O)c1cccc3cccc2c13", 5],
  ["O=C1N=C2C(=C1NCCCc1ccccc1)c1ccc(Sc3ccc(Br)cc3)c3cccc2c13", 1],
  ["CC(C)Cc1ccc(Sc2ccc3c4c(cccc24)C2=C(C#N)C(=O)N=C23)cc1", 3],
  ["CC(C)c1ccc(Sc2ccc3c4c(cccc24)C2=NC(=O)C(C#N)=C23)cc1", 2]
]}

Source of measurements: patent US8614333B2
